We begin with a simple list: items and their reported inhibition.
# Experimental system: Maternal embryonic leucine zipper kinase (Homo sapiens);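 further: each value is the mean inhibition of MELK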
# Measurement conditions: at 1 µM
Property label: inhibition (%)

1. COc1cc(N2CCN(C(C)C)CC2)ccc1Nc1nc(Nc2ccc(F)cc2C(N)=O)c2cc[nH]c2n1	78.3
2. Fc1cccc(COc2ccc(Nc3ncnc4sc(-c5ccco5)cc34)cc2Cl)c1	1.45
3. CCn1cc(-c2ccnc3[nH]ccc23)c(-c2cccc(NC(=O)Nc3ccc(OCc4ccccc4)cc3)c2)n1	-3.15
4. N#Cc1c(NC(=O)c2ccc(F)cc2)sc2c1CCCC2	5.26
5. c1ccc(-c2nc3n(c2-c2ccc4c(c2)OCO4)CCC3)nc1	4.77
